Test system: CAKI-1 renal
Assay Remarks: NCI tumour cell line growth inhibition, 48 h
Endpoint: TGI (µM)
One number for each entry, in µM.

Record excerpt, results attached:
molecule="CC1(C=O)CC(CCc2ccccc2)NC1Cc1ccc(O)cc1 (stereo unspecified)" subject_of_test="CAKI-1 renal" unit_tag=µM value_reported=29.3
molecule=COc1cc(C2C(C(=O)NCc3ccccc3)=C(C)NC(C)=C2C(=O)NCc2ccccc2)ccc1O subject_of_test="CAKI-1 renal" unit_tag=µM value_reported=75.1

Form: molecule = `COC1(OC)CCN(Cc2ccccc2)C1=O` ; TGI = 13

----------
System: ACHN renal
Assay Remarks: NCI tumour cell line growth inhibition, 48 h
Where a SMILES comes first, the peptide text is derived from it. [ ]: non-standard residue; d: D form. The star is where a group is joined. ξ: configuration not given here. NMeY = CN[C@@H](Cc1ccc(O)cc1)C(=O)O; Cbz = O=C(OCc1ccccc1)*; ξA = CC(N)C(=O)O
Endpoint: TGI

// worked examples, TGI included
compound="COc1ccc(C[C@@H](C(=O)N[C@@H](C)C(N)=O)N(C)C(=O)[C@@H]2CCCN2C(=O)[C@H](CC(C)C)NC(=O)C(C)NC(=O)OCc2ccccc2)cc1 (stereo partly drawn) (Cbz-[ξA]LP[NMeY](Me)A-NH2)" endpoint=TGI value_reported="> 100 µM"
compound=C/C=C1\Oc2ccc(OC)cc2S1(=O)=O endpoint=TGI value_reported="> 100 µM"

Dear reader, for each entry below, please note its TGI.
1. CN1CCCS/C1=C1/SC(=S)N(c2ccccc2)C1=O
2. Nc1c(C(=O)Nc2cccc(Cl)c2)sc2nc3c(cc12)C(O)CCC3 (stereo not drawn)
3. NC(=O)c1c[nH]c2ncnc(N)c12

Result:
1. > 100 µM
2. 23.4 µM
3. > 100 µM

Could you report TGI for every entry in the following list?
1. CCOC(=O)c1ccc(N=C2Sc3nc4ccccc4n3C2=Nc2ccc(C(=O)OCC)cc2)cc1
2. CC1(C)N=C(C(N)=O)c2ncn(Cc3ccccc3)c2N1

Result:
1. 57.2 µM
2. > 100 µM

TGI recorded for this compound, `Cc1nn(CNc2ccc(F)c(Cl)c2)c(=S)n1/N=C/c1ccc(-c2ccc(Cl)cc2Cl)o1` , is 30.7 µM

----------
System: HL-60(TB) leukemia
Assay Remarks: NCI tumour cell line growth inhibition, 48 h; in the data active = GI50 below about 0.43 µM; inactive = the rest
Would you mind answering with one of these outcomes? active, inactive

Use the examples below as a reference point.
compound=CC(C)c1cnc(-c2cc(Cl)ccc2F)cc1Nc1ccncc1C(=O)NC(CO)CO class_name=inactive
compound=COc1ccc(OC)c(C2=C(c3cn(C)c4ccccc34)C(=O)NC2=O)c1 class_name=inactive
compound=NS(=O)(=O)c1ccc(N=Nc2c(O)[nH]c3ccc(C(=O)NCCCn4ccnc4)cc23)cc1 class_name=inactive

For the next question, use this compound.
Problem: Look up the recorded call for CC(=O)Oc1ccc(C2OC(c3ccc4ccccc4c3OC(C)=O)=NN2C(C)=O)c(OC(C)=O)c1 (centres undefined) in this test.
Result: active

----------
System: CCRF-CEM leukemia
Assay Remarks: NCI tumour cell line growth inhibition, 48 h; in the data active = GI50 below about 0.43 µM; inactive = the rest
I would appreciate it if you answered using one of these outcomes: TRUE (active), FALSE (inactive)

Example entries begin here.
compound=NC(=O)c1c[nH]c2ncnc(N)c12 class_name=FALSE
compound=CCN1CCN(Cc2ccc(Nc3ncc(F)c(-c4cc(F)c5nc(C)n(C(C)C)c5c4)n3)nc2)CC1 class_name=FALSE
compound=COc1cccc2nc(Nc3cccc(NC(=O)c4ccc(N5CCN(C)CC5)c(C(F)(F)F)c4)c3)ccc12 class_name=FALSE
compound=CCOC(=O)c1c(C)n([O-])c2cc(F)c(F)cc2[n+]1=O class_name=FALSE
compound=COC(=O)CN1Cc2cc(C)cc(c2O)CN(CC(=O)OC)Cc2cc(C)cc(c2O)CN(CC(=O)OC)Cc2cc(C)cc(c2O)CN(CC(=O)OC)Cc2cc(C)cc(c2O)C1 class_name=FALSE

Problem: Entry `COc1ccc2[nH]c(C(=O)OCc3ccc4c(Br)cc(Br)c(O)c4n3)cc2c1` : call = ?
Result: TRUE

Problem: Which outcome was entered for the compound `Nc1nc(N)c2cc(S(=O)(=O)c3ccc4ccccc4c3)ccc2n1` in this test?
Result: FALSE

Problem: Record lookup: outcome of this test for COc1ccc2c(c1)OCC1c3cc(OC)c4ccccc4c3OC21 (stereo unspecified) ?
Result: FALSE

Problem: // param item: `CCc1ccc(Oc2c(-c3ccc(OCCc4cccc(C(F)(F)F)c4)cc3O)n[nH]c2C(F)(F)F)cc1` ; yields the recorded call
Result: FALSE

Problem: Lab log entry: `COc1ccc(N=Nc2ccc(O)c(=O)cc2)cc1` — outcome as called in the assay?
Result: FALSE

Problem: What call does the record list for COc1cc(/C=C2\CC3C4CCC5=CC(=O)CC[C@]5(C)C4CC[C@]3(C)C2=O)ccc1OCCN1CCCC1 (stereo partly specified) ?
Result: FALSE

Ref: PubChem BioAssay (NCI)
